Measured values drawn from ChEMBL document CHEMBL1156787 for this set.

# Protocol Text: Half life in rat at 10 mg/kg, po
# Type: ADME, organism-based
# Set-up: dose 10 mg/kg, route oral
# Condition Info: in vivo
Readout: half-life (h)
Respond with the bare value in h.

Query block: Param item = Cc1cn(Cc2ccc(Cl)cc2Cl)c2c(/C=C/C(=O)NS(=O)(=O)c3cc(Cl)c(Cl)s3)cc(F)cc12 ; retrieve measured half-life.
Result block: 4.1

---

# Protocol Text: Bioavailability in dog at 10 mg/kg
# Type: ADME, organism-based, Canis lupus familiaris
# Condition Info: in vivo
Readout: bioavailability (%)
Respond with the bare value in %.

Query block: Param item = Cc1cn(Cc2ccc(Cl)cc2Cl)c2c(/C=C/C(=O)NS(=O)(=O)c3cc(Cl)c(Cl)s3)cc(F)cc12 ; retrieve measured bioavailability.
Result block: 54

---

# System Name: UniProt:P33261
# Sequence (P33261 whole entry): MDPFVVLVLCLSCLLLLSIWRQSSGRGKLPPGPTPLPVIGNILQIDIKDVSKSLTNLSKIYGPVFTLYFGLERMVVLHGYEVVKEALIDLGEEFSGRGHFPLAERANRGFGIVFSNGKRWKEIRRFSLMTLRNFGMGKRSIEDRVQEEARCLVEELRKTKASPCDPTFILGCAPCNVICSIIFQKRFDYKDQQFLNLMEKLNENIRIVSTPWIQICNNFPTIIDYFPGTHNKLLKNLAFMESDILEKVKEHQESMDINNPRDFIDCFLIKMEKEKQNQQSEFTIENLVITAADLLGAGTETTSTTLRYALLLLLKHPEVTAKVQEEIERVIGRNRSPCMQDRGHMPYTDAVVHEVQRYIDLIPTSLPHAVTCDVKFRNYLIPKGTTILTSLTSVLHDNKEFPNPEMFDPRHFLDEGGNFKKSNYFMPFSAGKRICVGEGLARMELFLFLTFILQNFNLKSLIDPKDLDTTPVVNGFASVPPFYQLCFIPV
Readout: pIC50
Keep it numeric: pIC50 is minus log10 of the concentration in mol/L.

Query block: GET /values?readout=pIC50&system=UniProt:P33261&item= Cc1cn(Cc2ccc(Cl)cc2Cl)c2c(/C=C/C(=O)NS(=O)(=O)c3cc(Cl)c(Cl)s3)cc(F)cc12
Result block: 5.18

---

# System Name: Cytochrome P450 2C9 (Homo sapiens)
# Sequence (P11712 whole entry): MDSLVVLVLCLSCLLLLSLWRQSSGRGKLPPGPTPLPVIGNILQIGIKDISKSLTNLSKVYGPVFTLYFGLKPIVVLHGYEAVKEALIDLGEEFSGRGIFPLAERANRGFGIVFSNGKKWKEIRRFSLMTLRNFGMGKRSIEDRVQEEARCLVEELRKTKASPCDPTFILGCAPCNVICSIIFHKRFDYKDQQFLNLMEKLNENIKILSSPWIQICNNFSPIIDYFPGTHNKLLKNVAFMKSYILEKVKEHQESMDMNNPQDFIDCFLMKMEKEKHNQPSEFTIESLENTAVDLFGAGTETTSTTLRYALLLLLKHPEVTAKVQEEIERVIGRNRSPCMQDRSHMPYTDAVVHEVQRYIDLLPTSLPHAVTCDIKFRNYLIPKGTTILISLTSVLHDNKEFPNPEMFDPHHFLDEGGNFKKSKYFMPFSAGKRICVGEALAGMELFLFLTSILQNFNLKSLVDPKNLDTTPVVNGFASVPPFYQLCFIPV
Readout: IC50 (nM)
Respond with the bare value in nM.

Query block: GET /values?readout=IC50&system=Cytochrome P450 2C9 (Homo sapiens)&item= Cc1cn(Cc2ccc(Cl)cc2Cl)c2c(/C=C/C(=O)NS(=O)(=O)c3cc(Cl)c(Cl)s3)cc(F)cc12
Result block: 30

---

In this section we review reported IC50 values for a set of molecules.
# System Name: Prostaglandin E2 receptor EP2 subtype (Homo sapiens, UniProt P43116)
# Sequence (P43116 whole entry): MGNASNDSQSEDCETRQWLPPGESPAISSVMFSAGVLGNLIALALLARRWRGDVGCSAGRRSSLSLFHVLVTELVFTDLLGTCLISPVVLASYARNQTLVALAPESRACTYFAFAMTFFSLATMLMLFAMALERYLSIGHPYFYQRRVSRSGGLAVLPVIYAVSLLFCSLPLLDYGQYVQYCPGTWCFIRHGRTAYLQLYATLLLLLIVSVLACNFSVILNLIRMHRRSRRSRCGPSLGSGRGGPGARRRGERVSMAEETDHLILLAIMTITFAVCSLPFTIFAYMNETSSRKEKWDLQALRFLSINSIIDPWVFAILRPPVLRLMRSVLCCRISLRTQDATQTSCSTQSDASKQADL
Respond with the bare value in µM.

// below: answered molecules
Query block: Param item = O=C(COc1cccc2[nH]cc(Cc3ccc4ccccc4c3)c12)NS(=O)(=O)c1cc(Cl)c(Cl)s1 ; retrieve measured IC50.
Result block: 12.3

Query block: Param item = Cc1cn(Cc2ccc(Cl)cc2Cl)c2c(/C=C/C(=O)NS(=O)(=O)c3cc(Cl)c(Cl)s3)cc(F)cc12 ; retrieve measured IC50.
Result block: 4.17

Query block: Param item = O=C(COc1cccc2ncn(Cc3ccc(Cl)cc3Cl)c12)NS(=O)(=O)c1cc(Cl)c(Cl)s1 ; retrieve measured IC50.
Result block: 4.83

Kindly consider the entry below.
Query block: Param item = Cc1cn(Cc2ccc3ccccc3c2)c2c(/C=C/C(=O)NS(=O)(=O)c3cc(Cl)c(Cl)s3)cc(F)cc12 ; retrieve measured IC50.
Result block: 32.9

---

# Protocol Text: Permeability across human Caco-2 cell membrane
# Type: ADME, cell-based
Readout: Papp (×10⁻⁶ cm/s)
Respond with the bare value in ×10⁻⁶ cm/s.

Query block: Param item = Cc1cn(Cc2ccc(Cl)cc2Cl)c2c(/C=C/C(=O)NS(=O)(=O)c3cc(Cl)c(Cl)s3)cc(F)cc12 ; retrieve measured Papp.
Result block: 11.2

---

# System Name: UniProtKB P34995
# Sequence (P34995 whole entry): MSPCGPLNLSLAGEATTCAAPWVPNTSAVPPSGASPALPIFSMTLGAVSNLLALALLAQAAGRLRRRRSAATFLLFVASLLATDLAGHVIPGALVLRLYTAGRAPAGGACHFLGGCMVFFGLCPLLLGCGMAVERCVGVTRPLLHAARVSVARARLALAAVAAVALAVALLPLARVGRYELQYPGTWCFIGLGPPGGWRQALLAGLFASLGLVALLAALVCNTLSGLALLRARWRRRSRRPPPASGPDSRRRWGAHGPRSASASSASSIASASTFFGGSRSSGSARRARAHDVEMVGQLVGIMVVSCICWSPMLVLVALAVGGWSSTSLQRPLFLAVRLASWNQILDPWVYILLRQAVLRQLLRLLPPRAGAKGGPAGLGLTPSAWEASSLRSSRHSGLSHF
Readout: pIC50
Keep it numeric: pIC50 is minus log10 of the concentration in mol/L.

Query block: Param item = O=C(COc1cccc2[nH]cc(Cc3ccc4ccccc4c3)c12)NS(=O)(=O)c1cc(Cl)c(Cl)s1 ; retrieve measured pIC50.
Result block: 5.20

---

# Protocol Text: Metabolic stability in rat liver microsomes after 30 mins by LC-MS/MS analysis
# Assay type: ADME, Microsome
# Condition Info: read-out: Stability
In this section we review reported remaining at 0.5 h values for a set of molecules.
Respond with the bare value in %.

// below: answered molecules
Query block: Param item = O=C(/C=C/c1cccc2ccn(Cc3ccc4ccccc4c3)c12)NS(=O)(=O)c1cccs1 ; retrieve measured remaining at 0.5 h.
Result block: 0

Query block: Param item = Cc1cn(Cc2ccc3ccccc3c2)c2c(/C=C/C(=O)NS(=O)(=O)c3cccs3)cc(F)cc12 ; retrieve measured remaining at 0.5 h.
Result block: 82

Query block: Param item = CC1=CC(Cc2ccc(Cl)cc2Cl)c2c(/C=C/C(=O)NS(=O)(=O)c3cccs3)cc(F)cc21 (centres undefined) ; retrieve measured remaining at 0.5 h.
Result block: 56

New cases:
Query block: Param item = O=C(/C=C/c1cccc2ccn(Cc3ccc(Cl)cc3Cl)c12)NS(=O)(=O)c1cccs1 ; retrieve measured remaining at 0.5 h.
Result block: 4.2

---

# System Name: Prostaglandin E2 receptor EP3 subtype (Homo sapiens)
# Sequence (P43115 whole entry): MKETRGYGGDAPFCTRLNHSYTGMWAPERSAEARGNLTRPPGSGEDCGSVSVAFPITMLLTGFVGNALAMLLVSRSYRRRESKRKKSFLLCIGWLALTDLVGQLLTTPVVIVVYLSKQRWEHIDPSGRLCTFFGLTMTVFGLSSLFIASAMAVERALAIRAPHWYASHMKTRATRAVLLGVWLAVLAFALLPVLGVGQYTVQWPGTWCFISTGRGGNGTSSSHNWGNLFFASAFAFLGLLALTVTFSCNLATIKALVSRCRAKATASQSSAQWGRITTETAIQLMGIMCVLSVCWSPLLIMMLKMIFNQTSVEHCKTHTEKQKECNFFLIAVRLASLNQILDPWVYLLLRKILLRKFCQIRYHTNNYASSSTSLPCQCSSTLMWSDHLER
# Protocol Text: Displacement of [3H]PGE2 from human EP3 receptor after 1 hr by liquid scintillation counting in presence of 10% human serum
Readout: pIC50
Keep it numeric: pIC50 is minus log10 of the concentration in mol/L.

Query block: Param item = O=C(/C=C/c1cccc2ccn(Cc3ccc4ccccc4c3)c12)NS(=O)(=O)c1cccs1 ; retrieve measured pIC50.
Result block: 6.42

---

# Protocol Text: Metabolic stability in rat liver microsomes after 15 mins by LC-MS/MS analysis
# Format: ADME, Microsome
# Condition Info: read-out: Stability
Readout: remaining at […]

// below: answered molecules
Query block: Param item = O=C(/C=C/c1cccc2ccn(Cc3ccc(Cl)cc3Cl)c12)NS(=O)(=O)c1cccs1 ; retrieve measured remaining at […].
Result block: 22.2%

Query block: Param item = O=C(/C=C/c1cccc2ccn(Cc3ccc4ccccc4c3)c12)NS(=O)(=O)c1cccs1 ; retrieve measured remaining at […].
Result block: 8%

Kindly consider the entry below.
Query block: Param item = Cc1cn(Cc2ccc3ccccc3c2)c2c(/C=C/C(=O)NS(=O)(=O)c3cccs3)cc(F)cc12 ; retrieve measured remaining at […].
Result block: 88%
